study.target: Cannabinoid receptor 2 (Homo sapiens)
Sequence (P34972 whole entry): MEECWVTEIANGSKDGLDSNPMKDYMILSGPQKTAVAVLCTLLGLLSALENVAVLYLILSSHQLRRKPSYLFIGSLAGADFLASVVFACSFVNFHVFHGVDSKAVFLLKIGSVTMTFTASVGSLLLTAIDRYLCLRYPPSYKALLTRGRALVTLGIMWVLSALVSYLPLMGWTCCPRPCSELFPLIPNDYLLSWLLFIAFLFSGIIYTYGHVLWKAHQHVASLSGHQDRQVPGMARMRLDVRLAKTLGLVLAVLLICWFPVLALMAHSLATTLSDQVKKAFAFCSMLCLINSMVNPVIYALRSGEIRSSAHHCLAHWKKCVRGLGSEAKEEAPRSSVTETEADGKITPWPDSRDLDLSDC
assay.overview: Agonist activity at human CB2 receptor
Type: functional
assay.readout: pEC50
Answers are plain numbers, as −log10 of the molar value.

compound | pEC50
CCn1c2ccccc2c2cc(NC(=O)C3(S(=O)(=O)c4ccccc4)CC3)ccc21 | 8.10

Read the next record carefully.
# get_value(readout='pEC50', item= `O=C(Nc1cnc2ccccc2c1)C1(S(=O)(=O)c2ccccc2)CC1` )
8.40

---

Answer each item with its documented half-life.
assay.overview: Half life in Sprague-Dawley rat at 0.5 mg/kg, iv
Type: ADME, organism-based
Parameters: dose 0.5 mg/kg, route intravenous
condition.parameters: in vivo
One number for each entry, in h.

compound | value.units | measurement
Cn1nc(C(C)(C)C)cc1NC(=O)C(C)(C)S(=O)(=O)c1ccc(Cl)cc1 | h | 1.9

The record that follows has no half-life shown yet.
Returns the measured half-life for the input compound. Input: `CC(C)(C(=O)Nc1ccc(Cl)c(C(F)(F)F)c1)S(=O)(=O)c1ccc(Cl)cc1`
14
